Here the recorded melting point is given for each entry.

Record excerpt, results attached:
{"COMPOUND": "O=C1O[C@@H](CO)[C@H]2CCc3cc(O)ccc3N12 (relative stereo)", "melting point": "250 °C"}
{"COMPOUND": "CCN(C(=O)COc1nc(-c2ccc(N)cc2)nc(C)c1C)c1ccccc1", "melting point": "183 to 185 °C"}
{"COMPOUND": "Cc1nc(Cl)sc1C=O", "melting point": "77 to 78 °C"}
{"COMPOUND": "Fc1ccc(C(=C2SCSCS2)c2ccc(F)cc2)cc1", "melting point": "153 to 154 °C"}

Supply melting point value. Item: "COc1cc2nc(C)c(CO)nc2cc1OC"
176 to 177 °C

Supply melting point value. Item: "Cc1ccc2c(c1)Nc1ncccc1NC2=O"
286 to 288 °C
